Value source: PubChem BioAssay (Tox21)

# assay_notes: qHTS RealTime-Glo MT Cell Viability Assay in HEK293 cells - 8 hour (AID 1224887); further: top concentration of the series differs between compounds; on the % scale 0 is the no-effect control and ±100 the full control effect; nearly all actives have a fitted effect of over 50% in size
# details: RealTime-Glo luminescence; series mostly up to 76.8 µM
# Text: U.S. Tox21 Program National Center for Advancing Translational Sciences [NCATS] NIH Chemical Genomics Center [NCGC] U.S. Environmental Protection Agency [EPA] National Institutes of Environmental Health Sciences [NIEHS] National Toxicology Program [NTP] U.S. Food and Drug Administration [FDA] Tox21 Assay Overview: Measure of cell viability is critical in the cell-base assay. Analysis of cell viability is necessary for the characterization of cell responses to cytotoxic drugs and environmental stress. […]
Results filed as inconclusive are left out. Activity calls are given as the source filed them. The call rests on the fitted dose curve; in most records, active means well fitted cell-killing curve with a large enough effect in the repeat runs; inconclusive means weak or mixed curves, or effect the other way; inactive means flat fitted curve, though single readings scatter.
Your answer must be one of the following: Yes for active, No for inactive

Solved cases below.
- molecule: "C=C1c2cccc(O)c2C(O)=C2C(=O)[C@]3(O)C(O)=C(C(N)=O)C(=O)[C@@H](N(C)C)[C@@H]3[C@@H](O)[C@H]12"
  discrete_label: "No"
- molecule: "Cc1cscn1"
  discrete_label: "No"
- molecule: "C[C@H]1c2cccc(O)c2C(O)=C2C(=O)[C@]3(O)C(O)=C(C(N)=O)C(=O)[C@@H](N(C)C)[C@@H]3[C@@H](O)[C@@H]21"
  discrete_label: "No"
- molecule: "CN1CCCC(CC2c3ccccc3Sc3ccccc32)C1 (configuration not stated)"
  discrete_label: "No"
- molecule: "FC(F)(F)c1ccccc1Cl"
  discrete_label: "No"

Could you check what this test reported for `O=C1NCCN1CCO` ?
No

Could you do the same for `Oc1cccc(O)c1O` , please?
No

Repeat with CCCCC(CC)CN (configuration not stated)
No

###

# measurement_target: Cytochrome P450 2C19 (Homo sapiens) (UniProt P33261)
# Sequence (P33261 whole entry, looked up): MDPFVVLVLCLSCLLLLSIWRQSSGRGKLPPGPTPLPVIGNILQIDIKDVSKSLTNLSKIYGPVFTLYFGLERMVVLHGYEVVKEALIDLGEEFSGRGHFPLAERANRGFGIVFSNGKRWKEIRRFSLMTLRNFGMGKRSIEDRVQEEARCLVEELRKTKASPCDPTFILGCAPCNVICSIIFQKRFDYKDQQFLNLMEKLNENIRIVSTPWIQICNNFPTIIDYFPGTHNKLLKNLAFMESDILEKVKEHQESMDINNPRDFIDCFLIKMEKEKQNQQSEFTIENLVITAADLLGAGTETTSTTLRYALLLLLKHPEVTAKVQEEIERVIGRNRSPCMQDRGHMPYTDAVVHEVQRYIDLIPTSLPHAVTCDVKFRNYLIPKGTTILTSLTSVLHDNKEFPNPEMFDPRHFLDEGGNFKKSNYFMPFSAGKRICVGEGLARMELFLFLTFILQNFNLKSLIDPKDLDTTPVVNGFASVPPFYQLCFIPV
# assay_notes: Cytochrome P450 Family 2 Subfamily C Member 19 (CYP2C19) small molecule antagonists: luciferase reporter qHTS assay (AID 1671197); further: nearly all actives have a fitted effect of over 65% in size; further: potency means the concentration at half of the fitted maximal effect
# details: P450-Glo CYP2C19 enzyme, luciferin luminescence, 1 h; series mostly up to 52.9 µM
# Description: National Center for Advancing Translational Sciences [NCATS] U.S. Environmental Protection Agency [EPA] National Institutes of Environmental Health Sciences [NIEHS] National Toxicology Program [NTP] U.S. Food and Drug Administration [FDA] Cytochrome P450 (CYP) enzymes are membrane-bound hemeproteins that play a key role in metabolism of drugs and xenobiotics. […] The luciferin products formed are detected with a luciferin detection reagent, and the amount of light produced is proportional to CYP activity. […]
Inconclusive results are not listed. Calls of active or inactive are those of the source. Calls come from the whole dose curve; as a rule, active = well fitted inhibition curve with a large enough effect in the repeat runs; inconclusive = weak or mixed curves; inactive = no such curve, though single readings can be large or run the other way.
result_type: Potency

Observe how each entry below is paired with its result.
- compound: "CC[C@]1(O)C[C@H]2CN(CCc3c([nH]c4ccccc34)[C@@](C(=O)OC)(c3cc4c(cc3OC)N(C=O)[C@H]3[C@@](O)(C(=O)OC)[C@H](OC(C)=O)[C@]5(CC)C=CCN6CC[C@]43[C@@H]65)C2)C1"
  Potency: "inactive"
- compound: "CN1CC(=O)N2[C@H](c3ccc4c(c3)OCO4)c3[nH]c4ccccc4c3C[C@@H]2C1=O"
  Potency: "inactive"
- compound: "COC(=O)CCS"
  Potency: "70.4 µM (active)"
- compound: "C/C=C/C=C/C=O"
  Potency: "inactive"
- compound: "C/C=C\\C/C=C/CCCCCCCCOC(C)=O"
  Potency: "15.9 µM (active)"

Name the reported Potency value associated with the compound `C[C@@H]1CC(=O)NN=C1c1ccc(NN=C(C#N)C#N)cc1`
17.4 µM (active)

Likewise for CCCCC(CC)COP(=O)(O)O (configuration not stated) ?
40.6 µM (active)

###

# assay_notes: qHTS assay to test for compound auto fluorescence at 590 nm (red) in HepG2 cells (AID 720674); further: on the % scale 0 is the no-effect control and ±100 the full control effect
# details: HepG2 autofluorescence, red 540/590 nm, 1 h; series mostly up to 91.3 µM
Activity calls are given as the source filed them. The call rests on the fitted dose curve; in most records, active means well fitted curve in the direction sought with a large enough effect in the repeat runs; inconclusive means weak or mixed curves; inactive means flat fitted curve, though single readings scatter.
result_type: fluorescence, relative to Rose Bengal

- line_notation: "CC1(C)[C@H](C(=O)O)N2C(=O)C[C@H]2S1(=O)=O"
  result_type: "fluorescence, relative to Rose Bengal"
  reported_result: "inactive"
- line_notation: "C[C@@H](CN(C)C)CN1c2ccccc2Sc2ccccc21"
  result_type: "fluorescence, relative to Rose Bengal"
  reported_result: "0.322% [at 18.6 µM] (inactive)"
- line_notation: "CN(C(=O)CN(CCO)CC(=O)N(C)C(C)(C)Cc1ccccc1)C(C)(C)Cc1ccccc1"
  result_type: "fluorescence, relative to Rose Bengal"
  reported_result: "-0.825% [at 18.6 µM] (inactive)"
- line_notation: "CC(=O)Oc1ccc([N+](=O)[O-])cc1CCl"
  result_type: "fluorescence, relative to Rose Bengal"
  reported_result: "inactive"
- line_notation: "O=C(Cn1ccnc1[N+](=O)[O-])NCCO"
  result_type: "fluorescence, relative to Rose Bengal"
  reported_result: "inactive"

Given the entry `OCCN1CCN(CCCN2c3ccccc3Sc3ccc(Cl)cc32)CC1` , report its measured fluorescence, relative to Rose Bengal.
0.837% [at 18.6 µM] (inactive)

###

# assay_notes: qHTS assay for small molecule activators of the heat shock response signaling pathway - cell viability counter screen (AID 743209); further: nearly all actives have a fitted effect of over 50% in size
# details: HSE-bla HeLa viability, CellTiter-Glo luminescence, 5 h; series mostly up to 62.6 µM
Results filed as inconclusive are left out. Active and inactive are the calls of the source. The call rests on the fitted dose curve; in most records, active means well fitted cell-killing curve with a large enough effect in the repeat runs; inconclusive means weak or mixed curves, or effect the other way; inactive means no such curve, though single readings can be large or run the other way.
I would appreciate it if you answered using one of these outcomes: active, inactive

- compound: "O=c1cc(-c2ccccc2)oc2ccc3ccccc3c12"
  discrete_label: "active"
- compound: "Cc1cc(C)cc(N)c1"
  discrete_label: "inactive"
- compound: "CCCCCCCCCCC(=O)O"
  discrete_label: "inactive"
- compound: "Oc1ccc(Cl)c2cccnc12"
  discrete_label: "inactive"
- compound: "O=C(O)CCCCCCCCCCCBr"
  discrete_label: "inactive"
- compound: "C1C[C@@H]2[C@H]3CC[C@H](C3)[C@@H]2C1"
  discrete_label: "inactive"

Each compound tested received a call. Report the one for `CCCCCCCC/C=C\CCCCCCCCO` .
inactive

Next record, please: C=C(C)CCCC(C)CCO (stereo not drawn)
inactive

Would you kindly repeat that for `CC(=O)OCCN(CCOC(C)=O)c1ccc(N=Nc2ccc([N+](=O)[O-])cc2C#N)cc1` ?
inactive

For `CCCC(C(=O)OCCN(CC)CC)(c1ccccc1)c1ccccc1` then?
inactive

Can you handle `CN(C)CCN1C(=O)c2ccccc2N(C)c2ccccc21` next?
inactive

Now this one: `COc1ccc(OC(=O)N(CC(=O)O)Cc2ccc(OCCc3nc(-c4ccccc4)oc3C)cc2)cc1`
inactive

Lookup CC(CC1c2ccccc2CCc2ccccc21)CN(C)C (stereo not drawn)
inactive

###

# assay_notes: A CellTox Green Cytotoxicity Assay to monitor cytotoxicity in HEK293 cells - 16 hour (AID 1224888); further: on the % scale 0 is the no-effect control and ±100 the full control effect; nearly all actives have a fitted effect of over 35% in size
# details: CellTox Green fluorescence; series mostly up to 76.8 µM
Inconclusive results are not listed. Activity calls are given as the source filed them. Calls follow the shape of the dose curve; as a rule, active = well fitted activation curve with a large enough effect in the repeat runs; inconclusive = weak or mixed curves; inactive = flat fitted curve, though single readings scatter.
API: response.call in true = active, false = inactive

- molecule: "CCOC(=O)OC(C)OC(=O)[C@@H]1N2C(=O)[C@@H](NC(=O)[C@H](N)c3ccccc3)[C@H]2SC1(C)C (stereo partly specified)"
  discrete_label: "false"
- molecule: "C=C(C)[C@@H]1CCC2=CCC[C@@H](C)[C@]2(C)C1"
  discrete_label: "false"
- molecule: "Cc1cc(O)c(C)c(C)c1O"
  discrete_label: "false"

Field: next molecule
Assay result, entry `CC(=O)OCCN(CCOC(C)=O)c1ccc(N=Nc2ccc([N+](=O)[O-])cc2C#N)cc1` — outcome?
false

###

# assay_notes: A CellTox Green Cytotoxicity Assay to monitor cytotoxicity in HEK293 cells - 32 hour (AID 1224881); further: nearly all actives have a fitted effect of over 40% in size
# details: CellTox Green fluorescence; series mostly up to 76.8 µM
Inconclusive results are not listed. Calls of active or inactive are those of the source. Calls come from the whole dose curve; as a rule, active = well fitted activation curve with a large enough effect in the repeat runs; inconclusive = weak or mixed curves; inactive = flat fitted curve, though single readings scatter.
// allowed return values: active, inactive

- compound: "O=C(O)CCC(=O)C(=O)O"
  discrete_label: "inactive"

Look up the recorded call for `C=C(C)C(=O)OCCCCCCCCCCCCC` in this test.
inactive

Then this compound: `CCc1ccccc1`
inactive

`Nc1ncnc2c1ncn2[C@H]1CC[C@@H](CO)O1` , same question.
inactive

Param item: `C[C@@]12CCC[C@H]1[C@@H]1CC[C@H]3C[C@@H](O)CC[C@]3(C)[C@H]1CC2`
inactive

Entry `CN1C(C(=O)Nc2ccccn2)=C(O)c2sccc2S1(=O)=O` please
inactive

Check CC(C)C(O)(c1ccc(OC(F)(F)F)cc1)c1cncnc1 (stereo not drawn) too.
inactive

Can you check `CC(C)=CCC1C(=O)N(c2ccccc2)N(c2ccccc2)C1=O` next?
inactive

Moving on to `C/C=C\C/C=C/CCCCCCCCOC(C)=O`
inactive

How about this compound: `O=C(CCc1ccc(O)cc1)c1c(O)cc(O)cc1O`
inactive

Query `CC(=O)c1ccc([N+](=O)[O-])cc1` next
inactive

Follow-up entry: `Oc1cccc(Nc2ccccc2)c1`
inactive

Input `CCCCCCCCCCCCCCN(CCO)CCO`
active
